test system: SF-268 CNS; assay: NCI tumour cell line growth inhibition, 48 h
What GI50 was measured for each of the following?

Briefly, GI50 measured for O=C1c2ccccc2S(=O)(=O)N1CSC(=S)N1CCCCC1 : > 100 µM

For this molecule ( O=[N+]([O-])c1ccc(Sc2ncnc3nc[nH]c23)c2nonc12 ), measured GI50 is 5 µM

// field: GI50; key: O=C1c2nsnc2C(=O)c2c(F)c(F)c(F)c(F)c21 ; value = 1.6 µM

GI50 recorded for this molecule, CCN1C(=O)N(CC)C2Nn3c(s/c(=C\c4ccccc4Br)c3=O)=NC21 (stereo unspecified) , is 2.54 µM

For CCCCCCCCN(CCCCCCCC)CCCCCCNc1cc(OC)cc2cccnc12 the molecule record lists GI50 as 12.7 µM

For reference, reported GI50 for O=C1NC(=O)C(=C/C=C/c2ccccc2)C(=O)N1 stands at 3.2 µM
